Molecular target: chicken pp60^v-src (chicken)
Assay: inhibition of transphosphorylation of acid denatured enolase (1 µM) by immobilised pp60^v-src, [γ-32P]-ATP, SDS-PAGE
metric: pKi
Give bare numbers, as −log10 of the molar value.

May I ask what pKi has been recorded for peptide Ala-Glu-Glu-Glu-Ile-Tyr-Gly-Glu-Phe-Glu-Ala-Lys-Lys-Lys-Lys ?
5.10

Sourced from patent US6004757
